- measurement.target: T1, recombinant human VEGF121 (human, UniProt P15692-9 27-147)
- T1 construct: also called rhVEGF121; hVEGF121
- T1 sequence (looked up): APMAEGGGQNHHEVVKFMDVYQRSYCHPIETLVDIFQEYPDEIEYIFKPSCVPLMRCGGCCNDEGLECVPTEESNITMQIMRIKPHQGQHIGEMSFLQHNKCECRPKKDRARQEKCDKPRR
- protocol.notes: binding ELISA, coated rhVEGF121
pEC50: −log10 of the molar value.
Below: a set of entries, each annotated with reported pEC50.
readout.type: pEC50

- binder: "VEGFBII025 (VHH, biparatopic bivalent VHH in one chain; also called VEGFBII10E07-40GS-23B04) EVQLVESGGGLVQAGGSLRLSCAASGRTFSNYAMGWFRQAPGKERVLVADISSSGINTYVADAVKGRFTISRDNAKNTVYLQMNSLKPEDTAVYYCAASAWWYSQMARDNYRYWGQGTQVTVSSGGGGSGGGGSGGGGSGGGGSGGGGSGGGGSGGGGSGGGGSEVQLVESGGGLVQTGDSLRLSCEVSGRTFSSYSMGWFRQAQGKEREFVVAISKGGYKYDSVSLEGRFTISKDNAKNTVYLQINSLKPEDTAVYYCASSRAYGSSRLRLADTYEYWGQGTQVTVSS"
  reported.measurement: 9.32
- binder: "VEGFBII024 (VHH, biparatopic bivalent VHH in one chain; also called VEGFBII23B04-40GS-86H09; VEGFBI024) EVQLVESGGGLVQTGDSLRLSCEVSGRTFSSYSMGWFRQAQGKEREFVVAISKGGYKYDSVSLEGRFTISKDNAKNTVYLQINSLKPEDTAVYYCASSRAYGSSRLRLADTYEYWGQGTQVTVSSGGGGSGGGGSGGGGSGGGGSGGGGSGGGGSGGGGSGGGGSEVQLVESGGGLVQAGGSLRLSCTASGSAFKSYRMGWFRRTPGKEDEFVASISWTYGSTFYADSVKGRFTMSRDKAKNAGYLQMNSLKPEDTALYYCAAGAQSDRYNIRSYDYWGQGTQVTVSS"
  reported.measurement: 9.49
- binder: "VEGFBII010 (VHH, bivalent VHH in one chain; also called VEGFBII23B04-35GS-23B04; homodimeric VEGFBII23B04) EVQLVESGGGLVQTGDSLRLSCEVSGRTFSSYSMGWFRQAQGKEREFVVAISKGGYKYDSVSLEGRFTISKDNAKNTVYLQINSLKPEDTAVYYCASSRAYGSSRLRLADTYEYWGQGTQVTVSSGGGGSGGGGSGGGGSGGGGSGGGGSGGGGSGGGGSEVQLVESGGGLVQTGDSLRLSCEVSGRTFSSYSMGWFRQAQGKEREFVVAISKGGYKYDSVSLEGRFTISKDNAKNTVYLQINSLKPEDTAVYYCASSRAYGSSRLRLADTYEYWGQGTQVTVSS"
  reported.measurement: 9.04
- binder: "VEGFBII23A06 (VHH, also called 23A6; VEGFBII23A6) VHH: EVQLVESGGGLVQPGDSLKLSCAFSGRTFSSYSMGWFRQAQGKEREFVVAISSGGFIYDAVSLEGRFTISRDNTKNTVYLQTPSLKPEDTAVYYCAASRAYGSSRLRLADTYDYWGQGTQVTVSS"
  reported.measurement: 9.03
- binder: "VEGFBII022 (VHH, biparatopic bivalent VHH in one chain; also called VEGFBII23B04-9GS-5B05) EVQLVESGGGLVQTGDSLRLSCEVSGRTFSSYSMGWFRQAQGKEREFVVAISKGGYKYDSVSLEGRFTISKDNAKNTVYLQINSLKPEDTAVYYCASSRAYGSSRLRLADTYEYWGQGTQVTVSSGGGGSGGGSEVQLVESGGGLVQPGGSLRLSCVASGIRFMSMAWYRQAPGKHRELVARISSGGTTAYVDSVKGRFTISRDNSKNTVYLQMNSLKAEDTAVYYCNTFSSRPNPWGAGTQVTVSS"
  reported.measurement: 9.27
